- Target Of Assay: CYP3A4 (Homo sapiens)
- Sequence (P08684 whole entry): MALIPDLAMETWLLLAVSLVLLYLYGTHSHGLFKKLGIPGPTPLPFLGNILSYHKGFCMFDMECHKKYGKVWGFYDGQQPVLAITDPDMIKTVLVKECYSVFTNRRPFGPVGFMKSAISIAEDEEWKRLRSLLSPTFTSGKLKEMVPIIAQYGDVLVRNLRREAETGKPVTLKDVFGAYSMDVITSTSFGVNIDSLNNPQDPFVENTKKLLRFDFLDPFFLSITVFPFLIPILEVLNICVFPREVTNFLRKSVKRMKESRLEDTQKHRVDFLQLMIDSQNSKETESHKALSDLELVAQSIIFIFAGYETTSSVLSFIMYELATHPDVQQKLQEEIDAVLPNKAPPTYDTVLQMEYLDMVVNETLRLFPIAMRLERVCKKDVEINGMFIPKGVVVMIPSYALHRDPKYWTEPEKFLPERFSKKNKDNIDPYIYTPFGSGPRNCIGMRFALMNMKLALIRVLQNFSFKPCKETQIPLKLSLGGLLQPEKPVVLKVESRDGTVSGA
- Test Method Notes: Reversible inhibition of CYP3A4 assessed as conversion of testosterone to 6-beta-hydroxytestosterone at 10 uM relative to control
- Type: ADME
- Settings: probe testosterone
Reported Endpoint: activity % at 10 µM (%)
Number in %, nothing else.

Observed activity % at 10 µM, CYP3A4 (Homo sapiens), Cn1ccc([C@H]2CCNC[C@@H]2C(=O)N(Cc2cn(Cc3cccnc3)c3cccc(F)c23)C2CC2)cc1=O : 61

Log: CYP3A4 (Homo sapiens), molecule Cn1ccc([C@H]2CCNC[C@@H]2C(=O)N(Cc2cccc(Cl)c2Cl)C2CC2)cc1=O , activity % at 10 µM = 61

Known value: CYP3A4 (Homo sapiens) activity % at 10 µM of the molecule COCCCc1cc(Cl)cc(CN(C(=O)[C@H]2CNCC[C@@H]2c2ccn(C)c(=O)c2)C2CC2)c1 equals 23

Lab note: molecule COCCCc1cc(CN(C(=O)[C@H]2CNCC[C@@H]2c2ccn(C)c(=O)c2)C2CC2)c2ncccc2c1 tested on CYP3A4 (Homo sapiens); recorded activity % at 10 µM was 85

Value (activity % at 10 µM, CYP3A4 (Homo sapiens)) for record Cn1ccc([C@H]2CCNC[C@@H]2C(=O)N(Cc2cn(Cc3ccc(F)cc3)c3cccc(F)c23)C2CC2)cc1=O = 16

Assay CYP3A4 (Homo sapiens), sample COCCCc1cc(CN(C(=O)[C@H]2CNCC[C@@H]2c2cccnc2)C2CC2)cc(OCCOC)c1 , activity % at 10 µM read: 75

Response field activity % at 10 µM (CYP3A4 (Homo sapiens)) for item CCn1ccc([C@H]2CCNC[C@@H]2C(=O)N(Cc2cc(CCCOC)cc(OCCOC)c2)C2CC2)cc1=O : 70

Tested on CYP3A4 (Homo sapiens): Cn1ccc([C@H]2CCNC[C@@H]2C(=O)N(Cc2cc(CCCC#N)cc(Cl)c2Cl)C2CC2)cc1=O . Observed activity % at 10 µM: 55

====

- Test Method Notes: Half life in Beagle dog at 3 mg/kg, po and 1 mg/kg, iv
- Type: ADME, organism-based, Canis lupus familiaris
- Settings: in vivo
Reported Endpoint: half-life (h)
Please state the figure in h; there is no need to write the unit.

Entry COCCCc1cc(CN(C(=O)[C@H]2CNCC[C@@H]2c2ccn(C)c(=O)c2)C2CC2)cc(Br)c1C , half-life reported as 13.7

====

- Test Method Notes: Oral bioavailability in Sprague-Dawley rat at 30 mg/kg
- Assay type: ADME, organism-based
- Settings: in vivo
Can you tell me bioavailability for the items I'm about to list?
# output: bare number, implied unit %

Record COCCCc1cc(C)c(C)c(CN(C(=O)[C@H]2CNCC[C@@H]2c2ccn(C)c(=O)c2)C2CC2)c1 . Reported bioavailability: 7

Entry Cn1ccc([C@H]2CCNC[C@@H]2C(=O)N(Cc2cn(Cc3cccc(F)c3)c3cccc(F)c23)C2CC2)cc1=O ; bioavailability = 30

Query COCCCn1cc(CN(C(=O)[C@H]2CNCC[C@@H]2c2ccn(C)c(=O)c2)C2CC2)c2c(Cl)cccc21 yields bioavailability of 22

In plain terms, Cn1ccc([C@H]2CCNC[C@@H]2C(=O)N(Cc2cn(Cc3ccc(F)cc3)c3cccc(F)c23)C2CC2)cc1=O has a documented bioavailability of 17

bioavailability recorded for this compound, COCCCn1cc(CN(C(=O)[C@H]2CNCC[C@@H]2c2ccn(C)c(=O)c2)C2CC2)c2c(F)cccc21 , is 8

COCCCn1cc(CN(C(=O)[C@H]2CNCC[C@@H]2c2ccn(C)c(=O)c2)C2CC2)c2ccccc21 has a reported bioavailability of 8

Input COCCCc1cc(Cl)cc(CN(C(=O)[C@H]2CNCC[C@@H]2c2ccn(C)c(=O)c2)C2CC2)c1 . Output bioavailability: 28

Lookup result for COCCCc1cc(CN(C(=O)[C@H]2CNCC[C@@H]2c2ccn(C)c(=O)c2)C2CC2)c2ncccc2c1 ; measured bioavailability: 2

====

- Target Of Assay: UniProt:P08684
- Test Method Notes: Time dependent inhibition of CYP3A4 assessed as conversion of testosterone to 6-beta-hydroxytestosterone
- Type: ADME
Reported Endpoint: IC50 (µM)
Express your answer in µM, writing the number without its unit.

IC50 measured on COCCCc1cc(CN(C(=O)[C@H]2CNCC[C@@H]2c2ccn(C)c(=O)c2)C2CC2)cc(Br)c1C = 20

====

- Target Of Assay: Renin (Homo sapiens, UniProt P00797)
- Sequence (P00797 whole entry): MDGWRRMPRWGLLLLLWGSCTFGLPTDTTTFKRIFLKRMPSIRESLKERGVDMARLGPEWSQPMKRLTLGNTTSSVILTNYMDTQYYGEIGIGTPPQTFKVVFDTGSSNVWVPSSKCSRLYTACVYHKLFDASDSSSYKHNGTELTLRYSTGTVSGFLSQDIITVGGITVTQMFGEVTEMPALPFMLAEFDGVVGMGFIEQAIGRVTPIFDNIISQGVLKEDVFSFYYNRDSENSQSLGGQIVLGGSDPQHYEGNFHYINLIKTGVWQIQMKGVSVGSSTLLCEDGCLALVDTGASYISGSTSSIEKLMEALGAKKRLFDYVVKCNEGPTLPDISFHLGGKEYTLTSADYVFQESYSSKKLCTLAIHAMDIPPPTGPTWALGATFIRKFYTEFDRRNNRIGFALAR
- Test Method Notes: Inhibition of human recombinant renin using Q-FRET substrate after 3 hrs by fluorescence assay
Reported Endpoint: IC50

# compound Cn1ccc([C@H]2CCNC[C@@H]2C(=O)N(Cc2cn(Cc3ccncc3)c3cccc(F)c23)C2CC2)cc1=O ; its IC50 = 0.24 nM

// IC50 value for COCCCc1cc(CN(C(=O)[C@H]2CNCC[C@@H]2c2ccn(C)c(=O)c2)C2CC2)cc(-c2ccccc2)c1 : 18 nM

For this compound ( COC(=O)NCCc1cc(Cl)c(Cl)c(CN(C(=O)[C@H]2CNCC[C@@H]2c2ccn(C)c(=O)c2)C2CC2)c1 ), measured IC50 is 61 nM

Input COCCCc1ccc(Cl)c(CN(C(=O)[C@H]2CNCC[C@@H]2c2ccn(C)c(=O)c2)C2CC2)c1 . Output IC50: 8 nM

Form: compound = COCCCc1cc(CN(C(=O)[C@H]2CNCC[C@@H]2c2ccn(C)c(=O)c2)C2CC2)c2ncccc2c1 ; IC50 = 0.8 nM

Kindly note the recorded IC50 for COCCCn1cc(CN(C(=O)[C@H]2CNCC[C@@H]2c2ccn(C)c(=O)c2)C2CC2)c2ccccc21 , which is 2.3 nM

Lookup result for COCCCc1cc(C)c(C)c(CN(C(=O)[C@H]2CNCC[C@@H]2c2ccn(C)c(=O)c2)C2CC2)c1 ; measured IC50: 0.6 nM

// recorded IC50 for Cn1ccc([C@H]2CCNC[C@@H]2C(=O)N(Cc2cccc(Cl)c2Cl)C2CC2)cc1=O : 20 nM

====

- Test Method Notes: Half life in Sprague-Dawley rat at 20 mg/kg, po and 5 mg/kg, iv
- Settings: in vivo
Reported Endpoint: half-life (h)
Report the value in h with no unit label.

For COCCCc1cc(CN(C(=O)[C@H]2CNCC[C@@H]2c2ccn(C)c(=O)c2)C2CC2)cc(Br)c1C the compound record lists half-life as 5.2

====

- Test Method Notes: Clearance in cynomolgus monkey at 3 mg/kg, po and 1 mg/kg, iv
- Format: ADME, organism-based, Macaca fascicularis
- Settings: in vivo
Reported Endpoint: clearance (mL/min/kg)
Return type: number; implicit unit mL/min/kg.

Documented clearance of COCCCc1cc(CN(C(=O)[C@H]2CNCC[C@@H]2c2ccn(C)c(=O)c2)C2CC2)cc(Br)c1C : 14

====

- Target Of Assay: Renin (Homo sapiens, UniProt P00797)
- Test Method Notes: Inhibition of human recombinant renin using Q-FRET substrate after 3 hrs by fluorescence assay
I'd be grateful if you could share measured log10(IC50) for these entries.
Record value = log10 of IC50 given in nM.

Lab note: COCCCc1cc(CN(C(=O)[C@H]2CNCC[C@@H]2c2cc(=O)n(C)c3cc(Cl)ccc23)C2CC2)cc(OCCOC)c1 gave log10(IC50) of 0.30

Notebook: COCCCc1cc(Br)cc(CN(C(=O)[C@H]2CNCC[C@@H]2c2ccn(C)c(=O)c2)C2CC2)c1 , log10(IC50) read as 0.23

Reported log10(IC50) for Cn1ccc([C@H]2CCNC[C@@H]2C(=O)N(Cc2cn(Cc3ccc(F)cc3)c3cccc(F)c23)C2CC2)cc1=O was -1.30

Value of measured log10(IC50) for the entry CCn1ccc([C@H]2CCNC[C@@H]2C(=O)N(Cc2cc(CCCOC)cc(OCCOC)c2)C2CC2)cc1=O : 2.30

Lab note: COCCCc1cc(CN(C(=O)[C@H]2CNCC[C@@H]2c2cccnc2)C2CC2)cc(OCCOC)c1 gave log10(IC50) of 1.65

Cn1ccc([C@H]2CCNC[C@@H]2C(=O)N(Cc2cn(Cc3ccccc3)c3cccc(F)c23)C2CC2)cc1=O yielded log10(IC50) of -1.70

log10(IC50) reported for this compound COCCCc1cc(Cl)c(Cl)c(CN(C(=O)[C@H]2CNCC[C@@H]2c2ccn(C)c(=O)c2)C2CC2)c1 : -0.52

Noted for Cn1ccc([C@H]2CCNC[C@@H]2C(=O)N(Cc2cn(Cc3cccnc3)c3cccc(F)c23)C2CC2)cc1=O : its log10(IC50) reads -0.06

Briefly, log10(IC50) measured for Cn1ccc([C@H]2CCNC[C@@H]2C(=O)N(Cc2cc(CCCC#N)cc(Cl)c2Cl)C2CC2)cc1=O : 0.69

Lab note: COCCNc1cc(Cl)c(Cl)c(CN(C(=O)[C@H]2CNCC[C@@H]2c2ccn(C)c(=O)c2)C2CC2)c1 gave log10(IC50) of 0.85

Note to self: log10(IC50) recorded for COCCCn1cc(CN(C(=O)[C@H]2CNCC[C@@H]2c2ccn(C)c(=O)c2)C2CC2)c2c(Br)cccc21 was -1.15

Recorded log10(IC50) (compound Cn1ccc([C@H]2CCNC[C@@H]2C(=O)N(Cc2cn(Cc3cccc(F)c3)c3cccc(F)c23)C2CC2)cc1=O ): -1.22

Record COCCCn1cc(CN(C(=O)[C@H]2CNCC[C@@H]2c2ccn(C)c(=O)c2)C2CC2)c2c(Cl)cccc21 . Reported log10(IC50): -0.92

# log10(IC50) (compound: COCCCn1cc(CN(C(=O)[C@H]2CNCC[C@@H]2c2ccn(C)c(=O)c2)C2CC2)c2c(F)cccc21 ) is -0.49

Input COCCCc1cc(CN(C(=O)[C@H]2CNCC[C@@H]2c2cc(=O)n(C)c3ccccc23)C2CC2)cc(OCCOC)c1 . Output log10(IC50): 1.11

// recorded log10(IC50) for COCCCc1cc(CN(C(=O)[C@H]2CNCC[C@@H]2c2cc(=O)n(C)c(C)c2C)C2CC2)cc(OCCOC)c1 : 1.40

Form field log10(IC50), entry COCCCc1cc(CN(C(=O)[C@H]2CNCC[C@@H]2c2ccn(C)c(=O)c2)C2CC2)cc(Br)c1C : 0.00

Reported log10(IC50) for COCCCc1cc(CN(C(=O)[C@H]2CNCC[C@@H]2c2ccn(C)c(=O)c2)C2CC2)c2ccccc2c1 was -0.40

According to the records, this compound Cn1ccc([C@H]2CCNC[C@@H]2C(=O)N(Cc2c[nH]c3cccc(F)c23)C2CC2)cc1=O displays log10(IC50) of 1.08

Notebook: COCCCc1cc(Cl)cc(CN(C(=O)[C@H]2CNCC[C@@H]2c2ccn(C)c(=O)c2)C2CC2)c1 , log10(IC50) read as 0.48

Form field log10(IC50), entry Cn1ccc([C@H]2CCNC[C@@H]2C(=O)N(Cc2cc(CCC#N)cc(Cl)c2Cl)C2CC2)cc1=O : 0.93

Sample COCCc1cc(Cl)c(Cl)c(CN(C(=O)[C@H]2CNCC[C@@H]2c2ccn(C)c(=O)c2)C2CC2)c1 ; log10(IC50) observed: -0.22

log10(IC50) for CC(=O)NCCc1cc(Cl)c(Cl)c(CN(C(=O)[C@H]2CNCC[C@@H]2c2ccn(C)c(=O)c2)C2CC2)c1 is 0.65

log10(IC50) in this record for COCCCc1cc(CN(C(=O)[C@H]2CNCC[C@@H]2c2ccn(C)c(=O)c2)C2CC2)c2ccccc2n1 : 0.15

Field log10(IC50) (entry COCCCc1cc(CN(C(=O)[C@H]2CNCC[C@@H]2c2ccccc2)C2CC2)cc(OCCOC)c1 ) reads 2.18
